SUBJECT_OF_TEST: purified Human plasma Kallikrein (Homo sapiens (Human), UniProt P03952)
Sequence (P03952 391-638): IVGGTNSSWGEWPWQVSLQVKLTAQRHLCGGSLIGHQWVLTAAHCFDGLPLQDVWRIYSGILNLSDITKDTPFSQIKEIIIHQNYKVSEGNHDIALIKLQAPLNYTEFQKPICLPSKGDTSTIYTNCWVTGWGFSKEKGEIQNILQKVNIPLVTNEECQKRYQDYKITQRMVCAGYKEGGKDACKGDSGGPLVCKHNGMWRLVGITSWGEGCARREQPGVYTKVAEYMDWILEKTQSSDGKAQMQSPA
Sequence (P03952 20-390 partner): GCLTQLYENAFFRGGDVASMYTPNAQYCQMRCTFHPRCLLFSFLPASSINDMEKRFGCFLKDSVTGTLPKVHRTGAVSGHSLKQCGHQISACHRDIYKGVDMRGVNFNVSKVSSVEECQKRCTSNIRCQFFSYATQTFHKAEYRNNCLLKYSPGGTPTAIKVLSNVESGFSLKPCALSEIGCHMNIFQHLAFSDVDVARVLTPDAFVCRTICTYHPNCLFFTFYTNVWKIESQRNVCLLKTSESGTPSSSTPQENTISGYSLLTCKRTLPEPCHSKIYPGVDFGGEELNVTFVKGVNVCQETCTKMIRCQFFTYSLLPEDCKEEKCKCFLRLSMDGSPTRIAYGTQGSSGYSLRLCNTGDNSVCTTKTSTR
ASSAY_SUMMARY: Kallikrein Assay
Type: biochemical
COND: purified Human plasma Kallikrein 0.5 nM; substrate Acetyl-K-P-R-AFC; 50 mM HEPES pH 7.4; Ki from IC50 by Cheng Prusoff
For each entry below, report its pKi value.
Bear in mind: pKi is minus log10 of a mol/L concentration; give just that figure.

Form entry - test system: purified Human plasma Kallikrein (Homo sapiens (Human), UniProt P03952); read-out: pKi; compound: COC(=O)Nc1ccc2c(c1)NC(=O)CCCC[C@H](c1ccc(-c3c(C(F)(F)F)ccc(Cl)c3F)c[n+]1[O-])c1nc-2c(C)[nH]1 (single isomer, unassigned) [Example 123]
8.85

Now give it for COC(=O)Nc1ccc2c(c1)NC(=O)CCCCC(c1ccc(-c3c(F)ccc(Cl)c3F)c[n+]1[O-])c1nc-2c(C)[nH]1 (single isomer, unassigned) [Example 111-a] too.
9.47

Please answer likewise for O=C1CCCCC(c2ccc(-c3cc(Cl)ccc3-n3cnnn3)cn2)c2ccnc(c2)-c2cc(F)ccc2N1 (centres unmarked) [Example 56]
6.83

Here is the next compound: COC(=O)Nc1cc(F)c2c(c1)NC(=O)C(C)CCCC(c1ccc(-c3c(F)ccc(Cl)c3F)c[n+]1[O-])c1cccc-2c1 (single isomer, unassigned) [Example 85-b]
7.82

One more compound: COC(=O)Nc1ccc2c(c1)NC(=O)CC1CC1CC(c1ccc(-c3c(C(F)F)ccc(Cl)c3F)c[n+]1[O-])c1nc-2c(C)[nH]1 (racemic) [Example 157]
8.69
